Value source: paper doi:10.1101/2025.07.21.666047v1

Observed pIC50 for CD28:B7.1 (immobilized CD28 and biotinylated B7.1) (Homo sapiens, UniProt P10747), reported per entry below.
The scale used: pIC50 is minus the common logarithm of the concentration in molar units.

[[record]]
molecule = "NC(=O)c1ccc(N2CCN(C(=O)c3ncc4n3CCCC4)CC2)cc1"
measuredparameter = "pIC50"
observedresult = 4.48


Below: the item to evaluate.
Challenge: Enter reported pIC50 observed with CD28:B7.1 (immobilized CD28 and biotinylated B7.1) (Homo sapiens, UniProt P10747) for CC(C)OC1CCCN(C(=O)c2ccc(-c3nn[nH]n3)s2)C1 (centres unmarked)
Sequence (P10747 19-152 limits assumed): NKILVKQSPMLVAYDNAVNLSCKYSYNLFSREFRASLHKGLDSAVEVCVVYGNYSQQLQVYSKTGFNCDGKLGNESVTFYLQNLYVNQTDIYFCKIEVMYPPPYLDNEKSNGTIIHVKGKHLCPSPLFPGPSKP
Response given: 4.25

----------
Molecular target: recombinant human CD28 protein (extracellular domain, His-tagged) (Homo sapiens)
Sequence (P10747 19-152): as the sequence (P10747 19-152 limits assumed) above
Test: spectral shift
measuredParameter: Kd (µM)
Could you give me the number in µM? Just the number is fine.

Consider the reported Kd for these compounds:
[[record]]
compound = "COc1ccc(C2CC(C)N(CC(=O)NCC(F)(F)F)C2)cc1 (stereo not drawn) [Z3889890124]"
observedresult = 49.5

[[record]]
compound = "CC(C)OC1CCCN(C(=O)c2ccc(-c3nn[nH]n3)s2)C1 (stereo not drawn) [Z4390463985]"
observedresult = 45.8


Proceeding to the next compound to report its Kd.
Challenge: State the recorded Kd for this entry: NC(=O)c1ccc(N2CCN(C(=O)c3ncc4n3CCCC4)CC2)cc1 [Z2770993038]
Response given: 43.3
